READOUT: melting point

{"CHEMICAL STRING": "COc1ccc(-c2cc(CBr)c(=O)n(Cc3ccc(F)cc3)n2)cc1F", "OBSERVED MEASUREMENT": "120 to 125 °C"}
{"CHEMICAL STRING": "CCN(CC)CCOCCC1CCN(C(=O)N2c3cc(Cl)ccc3C(=O)Nc3cccnc32)CC1", "OBSERVED MEASUREMENT": "145 to 146 °C"}
{"CHEMICAL STRING": "Cc1nc2c(N)nc3cc(OCCC4CCN(C(=O)C5CCCC5)CC4)ccc3c2n1CC(C)C", "OBSERVED MEASUREMENT": "236 to 238 °C"}
{"CHEMICAL STRING": "CCCCc1nn(-c2cc(N)ccc2Br)c(=O)n1Cc1ccc(-c2ccccc2S(=O)(=O)NC(C)(C)C)cc1F", "OBSERVED MEASUREMENT": "103 to 105 °C"}

====

{"COMPOUND": "O=[N+]([O-])c1ccc(N=Nc2ccc(N(CC3CO3)CC3CO3)cc2)cc1 (stereo unspecified)", "melting point": "135 to 136 °C"}
{"COMPOUND": "CNc1ccccc1-c1nc2ncccc2[nH]1", "melting point": "262 to 263 °C"}
{"COMPOUND": "Nc1nc(NCc2cccc(I)c2)c2ncn(C3OC(CO)C(O)C3O)c2n1 (stereo unspecified)", "melting point": "152 to 154 °C"}
{"COMPOUND": "O=[N+]([O-])c1ccc(SSn2nccn2)c(C(Cl)(Cl)Cl)c1", "melting point": "189 °C"}
{"COMPOUND": "N#Cc1ncc(NCCO)nc1N1CCC(c2ccc(F)cc2)CC1", "melting point": "155 to 158 °C"}
{"COMPOUND": "CSc1ccccc1CNC(=O)[C@@H]1CCCN(c2cccc3c2C(=O)N(Cc2ccncc2)C3=O)C1", "melting point": "216 to 217 °C"}
{"COMPOUND": "CN(C)CCNC(=O)NCc1ccc2c(c1)-c1[nH]nc(-c3ccsc3)c1C2", "melting point": "247 to 249 °C"}
{"COMPOUND": "Cc1cccc(-c2nc3cccnn3c2-c2ccnc(N[C@@H](C)c3ccccc3)c2)c1", "melting point": "154 to 155 °C"}
{"COMPOUND": "Cc1cn2c(C(F)(F)F)nnc2c2ccccc12", "melting point": "162 to 164 °C"}
{"COMPOUND": "Nc1cccc2c1CN(c1c(F)cc3c(=O)c(C(=O)O)cn(-c4ccc(F)cc4F)c3c1F)C2", "melting point": "264 to 266 °C"}
{"COMPOUND": "CC(=O)c1ccc2nc(-n3ccnc3)nc(NCCOCCO)c2c1", "melting point": "164 to 166 °C"}
{"COMPOUND": "O=C(O)CCCCCCN(Cc1ccccc1)C(=O)c1cn2c3c(cccc13)CCC2", "melting point": "45 to 47 °C"}
{"COMPOUND": "Cc1cccc(C)c1NC(=O)CN1CCN(CC(O)C2COc3ccccc3O2)CC1 (stereo unspecified)", "melting point": "175 to 176 °C"}
{"COMPOUND": "CCCNC(=O)N1N=C(c2ccc(N)cc2)c2cc(Cl)ccc2CC1C (stereo unspecified)", "melting point": "88 to 90 °C"}
{"COMPOUND": "COc1cc(OC)c(-c2cc3ccccc3[nH]2)cc1C=CC(=O)c1ccc(S(=O)(=O)NCCCn2ccnc2)cc1", "melting point": "197 to 200 °C"}
{"COMPOUND": "COc1nc2cccnc2n1-c1ccc(-c2nc(-c3nccs3)cn2-c2ccc(C)nc2)cc1", "melting point": "190 to 192 °C"}
{"COMPOUND": "COc1ccc(-c2cc(-c3ccccc3)[nH]c2C(=O)Nc2ccc(C(=O)NO)cc2)cc1", "melting point": "234 to 235 °C"}
{"COMPOUND": "CCc1nc2cc(NS(C)(=O)=O)c(Cl)cc2n1-c1ccc(CCNC(=O)NS(=O)(=O)c2ccc(C)cc2)cc1", "melting point": "101 to 123 °C"}
{"COMPOUND": "CNC(=O)c1cc(-c2ccc(OC)cc2)nn(Cc2ccc([N+](=O)[O-])cc2)c1=O", "melting point": "199 °C"}
{"COMPOUND": "CC1=CCC(C(=O)O)CC1 (stereo unspecified)", "melting point": "95 °C"}
{"COMPOUND": "Nc1nc(Cl)c2ccccc2n1", "melting point": "275 to 278 °C"}
{"COMPOUND": "COc1ccc2ccc(OC)c3c2c1CCC3CCNC(C)=O (stereo unspecified)", "melting point": "125 °C"}
{"COMPOUND": "Cc1ccc(S(=O)(=O)N2CCC[C@H](CC#N)c3ccccc32)cc1", "melting point": "106 °C"}
{"COMPOUND": "COc1cc2c(cc1[N+](=O)[O-])C(C)CC1c3ccccc3CC1(C)C2 (stereo unspecified)", "melting point": "90 to 94 °C"}
{"COMPOUND": "COc1ccc2c(c1)C(=O)c1c-2nc2ccccc2c1Cl", "melting point": "216 to 218 °C"}
{"COMPOUND": "O=C(O)c1cccc(-c2ccnc3cc(Cc4cccc(C(F)(F)F)c4)nn23)c1", "melting point": "111 to 145 °C"}
{"COMPOUND": "CC(=O)Nc1c([N+](=O)[O-])c(Br)nn1-c1c(Cl)cc(C(F)(F)F)cc1Cl", "melting point": "179 to 180 °C"}
{"COMPOUND": "COc1ccc(C(Cl)=NO)cc1", "melting point": "87.5 to 89.5 °C"}
{"COMPOUND": "CC(=O)N[C@@H](CCC(=O)O)C(N)=O", "melting point": "85 to 87 °C"}
{"COMPOUND": "CCN(CCc1c[nH]c2ccccc12)C(=O)CCCC(=O)OC", "melting point": "73 to 75 °C"}
{"COMPOUND": "CCCN(CCC)C(=O)C(C)n1c(-c2ccc(Cl)cc2)nc2cccnc21 (stereo unspecified)", "melting point": "96 to 99 °C"}
{"COMPOUND": "CCCCOC(=O)c1ccc(N2CCN(CC=Cc3ccc(Cl)cc3)CC2)cc1", "melting point": "115 to 117 °C"}
{"COMPOUND": "O=C(O)c1ccc(SC(C(=O)O)c2cccc(C(F)(F)F)c2)cn1 (stereo unspecified)", "melting point": "190 to 195 °C"}
{"COMPOUND": "CCOP(=O)(CCCN)OCC", "melting point": "54 °C"}
{"COMPOUND": "CN(C)CC1Cc2c(n(C)c3ccc(O)cc23)C1 (stereo unspecified)", "melting point": "110 °C"}
{"COMPOUND": "NS(=O)(=O)c1cc2ccc(=O)[nH]c2s1", "melting point": "306 to 308 °C"}
{"COMPOUND": "COC1=C(C(=O)c2ccc(OC)cc2)C(c2ccc(C(C)(C)C)cc2)N(c2nnc(C)s2)C1=O (stereo unspecified)", "melting point": "235 to 237 °C"}
{"COMPOUND": "CN1Cc2cccnc2C(N2CCN(C(=O)CC3CCN(C(=O)OC(C)(C)C)CC3)CC2)c2ccc(Cl)cc21 (stereo unspecified)", "melting point": "86 to 98 °C"}
{"COMPOUND": "NCC1Cc2cccc(-c3ccc(F)c(Cl)c3)c2O1 (stereo unspecified)", "melting point": "> 210 °C"}
{"COMPOUND": "COc1ccc(-c2cnc(C)[nH]c2=O)cc1OC", "melting point": "187 to 188 °C"}
{"COMPOUND": "CCOCc1nc2c(N)nc3cccnc3c2n1CCCCS(=O)(=O)NC", "melting point": "148 to 150 °C"}

====

// values below are reported melting point

{"COMPOUND": "COc1ccc(CN2C(=O)C(C)(c3cc(N(S(C)(=O)=O)S(C)(=O)=O)ccc3Cl)c3cc(Cl)ccc32)c(OC)c1 (centres undefined)", "melting point": "159 °C"}
{"COMPOUND": "CCCOC(C)c1ccc(O)cc1 (single isomer, unassigned; (+))", "melting point": "61 to 63 °C"}
{"COMPOUND": "CNC(Cc1ccc(C(F)(F)F)cc1N)c1sccc1C (centres undefined)", "melting point": "52 to 54 °C"}
{"COMPOUND": "CCC(CC)n1cnc2c1c(=O)n(C)c(=O)n2-c1ccc(Cl)cc1Cl", "melting point": "158 to 159 °C"}
{"COMPOUND": "Cc1cc(=O)[nH]c2ccc(OCCCN3CCN(Cc4ccc(Cl)cc4)CC3)cc12", "melting point": "195 to 197 °C"}
{"COMPOUND": "CCOC(=O)C(=C1NCCCN1OC)[N+](=O)[O-]", "melting point": "177 to 178 °C"}
{"COMPOUND": "C=C(C)[C@@H]1CC[C@]2(C(=O)O)CC[C@]3(C)[C@H](CC[C@@H]4[C@@]5(C)CC[C@H](OC(=O)[C@H]6C[C@@H](C(=O)O)C6(C)C)C(C)(C)[C@@H]5CC[C@]43C)[C@@H]12", "melting point": "308 to 310 °C"}
{"COMPOUND": "COc1ccc(S(=O)(=O)Nc2ccc(Cl)cc2Cc2c(F)cccc2F)cc1OC", "melting point": "144 °C"}
{"COMPOUND": "Nc1ccc(-c2cnc(COCc3cc4ccccc4o3)o2)cc1", "melting point": "96 to 98 °C"}
{"COMPOUND": "CCOC(=O)CCNC(=O)NC1CCN(c2ccc(C(=N)NOC(=O)OCC(Cl)(Cl)Cl)cc2)C1=O (centres undefined)", "melting point": "196 to 198 °C"}
{"COMPOUND": "CNc1ccc(N=O)cc1", "melting point": "115 to 117 °C"}
{"COMPOUND": "c1ccc(OCCSCc2nnc(-c3ccc(OCCN4CCSCC4)cc3)o2)cc1", "melting point": "60 °C"}
{"COMPOUND": "CCc1cccc(CNC(=O)c2nc3scc(COCc4ccc(C(=O)O)cc4)c3c(=O)[nH]2)c1", "melting point": "240 to 242 °C"}
{"COMPOUND": "CCCCC(=O)c1c(-c2ccc3cc(O)ccc3c2)oc2ccccc12", "melting point": "148 to 149 °C"}
{"COMPOUND": "COC(=O)/C=C/C#Cc1cccc(S(=O)(=O)Nc2ccccc2)c1", "melting point": "134 to 136 °C"}
{"COMPOUND": "CCCCc1nc(Cl)c(CNC(=O)OCC)n1Cc1ccc(-c2ccccc2C(=O)O)cc1", "melting point": "144 to 147 °C"}
{"COMPOUND": "O=C(O)C1=Cc2c(ccc(Cl)c2-c2ccccc2)OC1C(F)(F)F (centres undefined)", "melting point": "229 to 231 °C"}
{"COMPOUND": "COC(=O)c1cc(NC(=O)C2=C(C)OCCS2)ccc1Cl", "melting point": "115 to 117 °C"}
{"COMPOUND": "CCc1nc2ccc3c(c2o1)C(CCNC(C)=O)CC3 (centres undefined)", "melting point": "76 to 78 °C"}
